- Test system: MDA-MB-231
- ASSAY_INFO: NCI tumour cell line growth inhibition, 48 h
Calls of active or inactive are those of the source. No stated cut-off is given here; in the data, active = GI50 up to about 1.1 µM and inactive = higher. Square brackets hold non-standard residues; d marks the D form. Peptide text beside a SMILES is read from it. * marks the point of attachment. X26 = COC1=CC(=O)N(C(=O)[C@@H](O*)C(C)C)[C@H]1Cc1ccccc1; Bn2Val = CC(C)[C@@H](C(=O)*)N(Cc1ccccc1)Cc1ccccc1; NMeV = CN[C@H](C(=O)O)C(C)C; dNMeA = CN[C@H](C)C(=O)O
Return exactly one item of active, inactive

(Q) Answer briefly: the call reported for Cc1ccc2nc(-c3ccc(-n4c(C)nc(=O)c(-c5ccc(F)cc5)c4C)cc3)sc2c1 in this assay.
(A) inactive

(Q) Answer briefly: the call reported for Cc1[nH]c(=O)[nH]c(=O)c1N(CCF)CCCl in this assay.
(A) inactive

(Q) Answer briefly: the call reported for O=[N+]([O-])c1cc(Cl)ccc1S(=O)(=O)c1cc(Cl)cc2c1NCCC2 in this assay.
(A) inactive

(Q) Answer briefly: the call reported for Cc1ccc2cccc(-c3cccc4ccccc34)c2n1 in this assay.
(A) inactive

(Q) Answer briefly: the call reported for CCOC(=O)C(NC(=O)CC)(Nc1ccccc1OC)C(F)(F)F (stereo not given) in this assay.
(A) inactive

(Q) Answer briefly: the call reported for CC(=O)OC1OC(c2ccoc2)C[C@@]12C1CCC3O[C@]3(C)[C@]1(C)[C@H](OC(C)=O)[C@H](OC(C)=O)[C@H]2C (stereo not given in full) in this assay.
(A) inactive

(Q) Answer briefly: the call reported for COC(=O)Nc1nc2ccccc2[nH]1 in this assay.
(A) inactive

(Q) Answer briefly: the call reported for COc1cccc(N2C(=O)CSC2c2cc(OC)c(OC)c(OC)c2)c1 (stereo not given) in this assay.
(A) inactive

(Q) Answer briefly: the call reported for Cc1c(-c2ccccc2)c(C#N)c2nnn(C3CCCCC3)c(=O)n12 in this assay.
(A) inactive

(Q) Answer briefly: the call reported for NS(=O)(=O)c1ccc(/N=N/c2cnc(O)c(O)c2)cc1 in this assay.
(A) inactive

(Q) Answer briefly: the call reported for CC(C)(CN)CN in this assay.
(A) inactive

(Q) Answer briefly: the call reported for CCCCCCCCCCCCCCCCCCNc1ccn(C2OC(COP(=O)(O)O)C(O)C2O)c(=O)n1 (stereo not given) in this assay.
(A) inactive

(Q) Answer briefly: the call reported for CC(=O)Nc1nc(O)c2nc(C=O)cnc2n1 in this assay.
(A) inactive

(Q) Answer briefly: the call reported for COc1cccc(/C=C2\CCCCCC2=O)c1 in this assay.
(A) inactive

(Q) Answer briefly: the call reported for CCOC(=O)Nc1[nH]cc(-c2ccccc2)c1C#N in this assay.
(A) inactive

(Q) Answer briefly: the call reported for Nc1ccn([C@@H]2C=C(CO)[C@@H](O)[C@H]2O)c(=O)n1 in this assay.
(A) active

(Q) Answer briefly: the call reported for COC1=CC(=O)N(C(=O)[C@@H](OC(=O)[C@@H](C)N(C)C(=O)[C@@H]2CCCN2C(=O)[C@H](C(C)C)N(C)C(=O)[C@@H](NC(=O)[C@H](C(C)C)N(Cc2ccccc2)Cc2ccccc2)C(C)C)C(C)C)[C@H]1Cc1ccccc1 (Bn2Val-V[NMeV]P[dNMeA]-X26) in this assay.
(A) inactive

(Q) Answer briefly: the call reported for O=[N+]([O-])/C(Cl)=C(/C(Cl)=C(Cl)Cl)N1CCCCC1 in this assay.
(A) inactive

(Q) Answer briefly: the call reported for c1ccc(CSc2nc(N3CCCCC3)c3cn[nH]c3n2)cc1 in this assay.
(A) inactive

(Q) Answer briefly: the call reported for CC1CN=C(N(Cc2ccccc2)C(=O)Nc2ccc(Cl)c(Cl)c2)S1 (stereo not given) in this assay.
(A) inactive

src = ChEMBL document CHEMBL1201862
